- target or system: recombinant human bradykinin B2 receptor (Homo sapiens, UniProt P30411)
- Construct: expressed in transfected cells; host or cells: Chinese hamster ovary (CHO) cells, membrane homogenates
- test protocol: [3H]-BK competition radioligand binding to human cloned B2 receptor (CHO cell membranes)
- run parameters: 0.2 nM [3H]-bradykinin, CHO membranes, 60 min 23° C.; mean ± SEM or single value; Ki from IC50 by Cheng-Prusoff; read-out: [3H]-BK Binding to Human Cloned B2 Receptor (Ki)
readout: pKi
pKi here is simply -log10 of the concentration when that concentration is written in mol/L.

Prompt: Look up pKi: CNC(=O)[C@H]1CC[C@H](CCC(=O)NCC(=O)N(C)c2ccc(Cl)c(COc3cccc4c3nc(OC)n4Cc3ccccn3)c2Cl)CN1
Response: 6.48

Prompt: May I ask what pKi has been recorded for COc1nc2c(OCc3c(Cl)ccc(N(C)C(=O)CNC(=O)CCN4CCOCC4)c3Cl)cccc2n1Cc1ccccn1 ?
Response: 6.34

Prompt: Record request: pKi value, item CNC(=O)N1CCN(CC(F)(F)C(=O)NCC(=O)N(C)c2ccc(Cl)c(COc3cccc4c3nc(OC)n4Cc3ccccn3)c2Cl)CC1
Response: 6.35

Prompt: Quick check: pKi of COc1nc2c(OCc3c(Cl)ccc(N(C)C(=O)CNC(=O)CN4CCOC(C(=O)NCCO)C4)c3Cl)cccc2n1Cc1ccccn1 (stereo not drawn) ?
Response: 6.55

Prompt: Given COC(=O)c1ccc(CCC(=O)NCC(=O)N(C)c2ccc(Cl)c(COc3cccc4c3nc(OC)n4Cc3ccccn3)c2Cl)cc1 , state its recorded pKi.
Response: 7.26

Prompt: If you can, please state the reported pKi value of CCc1nc2c(OCc3c(Cl)ccc(N(C)C(=O)CNC(=O)CCN4CCN(C(=O)NC)CC4)c3Cl)cccn2c1C(O)c1ccccn1 (stereo not drawn) [Compound 59] .
Response: 5.67

###

- target or system: BK receptors in human ciliary muscle cells (h-CM) (Homo sapiens)
- Construct: h-CM cells expressing BK receptors were seeded; endogenous in cells; host or cells: human ciliary muscle (h-CM) cells
- test protocol: Functional assay measuring [Ca2+]i mobilization (FLIPR) in h-CM cells
- Assay type: cell-based
- run parameters: class symbols (in μM), read-out: CaM (EC50)
readout: EC50

Prompt: What measured EC50 is associated with COc1nc2c(OCc3c(Cl)ccc(N(C)C(=O)CNC(=O)CCc4ccc(C(=O)NCCO)nc4)c3Cl)cccc2n1Cc1cn(C)cn1 on BK receptors in human ciliary muscle cells (h-CM) (Homo sapiens)?
Response: < 0.1 µM

Prompt: Item COc1nc2c(OCc3c(Cl)ccc(N(C)C(=O)CNC(=O)CCC4CN=C(NC(C)=O)NC4)c3Cl)cccc2n1Cc1ccccn1 (stereo not drawn) with BK receptors in human ciliary muscle cells (h-CM) (Homo sapiens) - EC50?
Response: < 0.1 µM

Prompt: Report EC50 for COc1nc2c(OCc3c(Cl)ccc(N(C)C(=O)CNC(=O)CNC4CCC(NC(C)=O)CC4)c3Cl)cccc2n1Cc1ccccn1 (stereo not drawn) tested on BK receptors in human ciliary muscle cells (h-CM) (Homo sapiens).
Response: < 0.1 µM

###

- target or system: BK receptors in human ciliary muscle cells (h-CM) (Homo sapiens)
- Construct: h-CM cells expressing BK receptors were seeded; endogenous in cells; host or cells: human ciliary muscle (h-CM) cells
- test protocol: Functional assay measuring [Ca2+]i mobilization (FLIPR) in h-CM cells
- Type: cell-based
- run parameters: class symbols (in μM), read-out: CaM (EC50)
- Description: On the day of the experiment, media was removed, cells were rinsed and 50 μL of serum-free media added. […] After this time, the test compound plate and cell plate were placed in a Fluorescence Imaging Plate Reader (FLIPR-Tetra®) instrument (Molecular Devices/MDSPharma, Sunnyvale, Calif.). At the beginning of an experimental run, a signal test was performed to check the basal fluorescence signal from the dye-loaded cells and the uniformity of the signal across the plate. […]
So I've got a bunch of compounds here, and I need their EC50 values.

Prompt: Form: Entry = COC(=O)Nc1ccc(CCC(=O)NCC(=O)N(C)c2ccc(C)c(COc3cccc4c3nc(OC)n4Cc3ccccn3)c2C)cn1 [Compound 6] | System = BK receptors in human ciliary muscle cells (h-CM) (Homo sapiens) | EC50 = ____
Response: < 0.1 µM

Prompt: What is its EC50 for BK receptors in human ciliary muscle cells (h-CM) (Homo sapiens)? Entry: CNC(=O)C1=NCC(CCC(=O)NCC(=O)N(C)c2ccc(Cl)c(COc3cccc4c3nc(OC)n4Cc3ccccn3)c2Cl)CN1 (stereo not shown)
Response: < 0.1 µM

Prompt: Provide the documented EC50 with BK receptors in human ciliary muscle cells (h-CM) (Homo sapiens) as the system for CCc1nc2c(OCc3c(C)ccc(N(C)C(=O)CNC(=O)CCN4CCN(C(=O)NC)CC4)c3C)cccc2n1Cc1ccccn1
Response: 0.1 to 1 µM

Prompt: Under BK receptors in human ciliary muscle cells (h-CM) (Homo sapiens): EC50 value of COc1nc2c(OCc3c(Cl)ccc(N(C)C(=O)CNC(=O)CCCN4CCN(C(C)=O)CC4)c3Cl)cccc2n1Cc1ccccn1 ?
Response: 0.1 to 1 µM

Prompt: For BK receptors in human ciliary muscle cells (h-CM) (Homo sapiens), provide EC50 of CNC(=O)c1ccc(C(=O)NCC(=O)N(C)c2ccc(Cl)c(COc3cccc4c3nc(OC)n4Cc3ccccn3)c2Cl)cn1 please.
Response: < 0.1 µM

Prompt: Form field - read-out: EC50; system: BK receptors in human ciliary muscle cells (h-CM) (Homo sapiens); submitted item: COc1nc2c(OCc3c(Cl)ccc(N(C)C(=O)CNC(=O)COc4cnc(NC(C)=O)nc4)c3Cl)cccc2n1Cc1ccccn1
Response: < 0.1 µM

Prompt: Record CCc1nc2c(OCc3c(Cl)ccc(N(C)C(=O)CNC(=O)CCC4CN=C(NC(C)=O)NC4)c3Cl)cccc2n1Cc1ccccn1 (stereo not shown) : what is its EC50 with BK receptors in human ciliary muscle cells (h-CM) (Homo sapiens)?
Response: < 0.1 µM

Prompt: # value lookup — system BK receptors in human ciliary muscle cells (h-CM) (Homo sapiens), readout EC50, item CCOC(=O)COc1cc(C)nc2c(OCc3c(Cl)ccc(N(C)C(=O)CNC(=O)CCc4ccc(C(=O)NC)nc4)c3Cl)cccc12
Response: 0.1 to 1 µM

Prompt: State its EC50 on BK receptors in human ciliary muscle cells (h-CM) (Homo sapiens): CCc1nc2c(OCc3c(Cl)ccc(N(C)C(=O)CNC(=O)CCN4CCN(C(=O)NC)CC4)c3Cl)cccn2c1C(O)c1ccccn1 (stereo not shown) [Compound 59]
Response: 0.1 to 1 µM

Prompt: Query the reported EC50 for BK receptors in human ciliary muscle cells (h-CM) (Homo sapiens); item: CCOC(=O)NC1=NCC(CCC(=O)NCC(=O)N(C)c2ccc(Cl)c(COc3cccc4c3nc(OC)n4Cc3ccccn3)c2Cl)CN1 (stereo not shown)
Response: < 0.1 µM

###

- target or system: BK receptors in human ciliary muscle cells (h-CM) (Homo sapiens)
- Construct: h-CM cells expressing BK receptors were seeded; endogenous in cells; host or cells: human ciliary muscle (h-CM) cells
- test protocol: Functional assay measuring [Ca2+]i mobilization (FLIPR) in h-CM cells
- Type: cell-based
- run parameters: class symbols (in μM), read-out: CaM (EC50)
readout: EC50

Prompt: I am curious: what EC50 value has been reported for CCc1nc2c(OCc3c(Cl)ccc(N(C)C(=O)CNC(=O)CCN4CCN(C(=O)NC)CC4)c3Cl)cccc2n1Cc1ccccn1 [Compound 19] ?
Response: < 0.1 µM

Prompt: Report EC50 for CNC(=O)N1CCC(N2CCC(C(=O)NCC(=O)N(C)c3ccc(Cl)c(COc4cccc5c4nc(OC)n5Cc4ccccn4)c3Cl)C2)C1 (stereo not drawn) [Compound 24] please.
Response: < 0.1 µM

Prompt: If you can, please state the reported EC50 value of COc1nc2c(OCc3c(Cl)ccc(N(C)C(=O)CNC(=O)CN4CCOCC4)c3Cl)cccc2n1Cc1ccccn1 [Compound 14] .
Response: 0.1 to 1 µM

Prompt: What value of EC50 has been reported for the following compound? CNC(=O)c1ccc(CCC(=O)NCC(=O)N(C)c2ccc(Cl)c(COc3cccc4c3nc(OC)n4Cc3nccn3C)c2Cl)cc1 [Compound 82]
Response: < 0.1 µM

Prompt: Please give the measured EC50 for this compound: COc1nc2c(OCc3c(Cl)ccc(N(C)C(=O)CNC(=O)CCc4ccc(NC(=O)CN)nc4)c3Cl)cccc2n1Cc1ccccn1 [Compound 74]
Response: < 0.1 µM

Prompt: # EC50 lookup, item CNC(=O)c1ccc(CCC(=O)NCC(=O)N(C)c2ccc(Cl)c(COc3cccc4c3nc(OC)n4Cc3ccccn3)c2Cl)nc1 [Compound 43]
Response: < 0.1 µM

###

- target or system: BK receptors in human ciliary muscle cells (h-CM) (Homo sapiens)
- Construct: h-CM cells expressing BK receptors were seeded; endogenous in cells; host or cells: human ciliary muscle (h-CM) cells
- Sequence (P30411 1-391): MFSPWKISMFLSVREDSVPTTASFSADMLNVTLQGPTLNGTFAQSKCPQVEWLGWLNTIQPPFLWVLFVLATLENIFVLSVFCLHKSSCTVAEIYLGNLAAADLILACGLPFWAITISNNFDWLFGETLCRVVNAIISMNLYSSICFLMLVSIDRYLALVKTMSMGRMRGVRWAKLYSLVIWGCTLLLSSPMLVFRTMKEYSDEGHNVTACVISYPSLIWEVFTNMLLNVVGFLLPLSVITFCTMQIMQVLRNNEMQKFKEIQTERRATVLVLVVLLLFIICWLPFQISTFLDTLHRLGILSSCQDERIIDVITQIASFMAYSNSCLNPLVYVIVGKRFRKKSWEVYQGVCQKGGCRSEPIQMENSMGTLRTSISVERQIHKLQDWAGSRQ
- test protocol: Functional assay measuring [Ca2+]i mobilization (FLIPR) in h-CM cells
- Format: cell-based
- run parameters: class symbols (in μM), read-out: CaM (EC50)
I'd be grateful if you could share measured EC50 for these entries.

Prompt: Query for BK receptors in human ciliary muscle cells (h-CM) (Homo sapiens): what EC50 does the record show for COc1nc2c(OCc3c(Cl)ccc(N(C)C(=O)CNC(=O)CCN4CCN(C(=O)N(C)C)CC4)c3Cl)cccc2n1Cc1ccccn1 ?
Response: 0.1 to 1 µM

Prompt: Short answer please: EC50, BK receptors in human ciliary muscle cells (h-CM) (Homo sapiens), entry COc1nc2c(OCc3c(Cl)ccc(N(C)C(=O)CNC(=O)CCCNC(C)=O)c3Cl)cccc2n1Cc1ccccn1
Response: < 0.1 µM

Prompt: Give BK receptors in human ciliary muscle cells (h-CM) (Homo sapiens) EC50 for CNC(=O)c1ccc(CCC(=O)NCC(=O)N(C)c2ccc(Cl)c(COc3cccc4c3nc(OC)n4Cc3cn(C)cn3)c2Cl)cc1
Response: < 0.1 µM

Prompt: Please tell me: EC50 of CNC(=O)C1CNCC(CC(=O)NCC(=O)N(C)c2ccc(Cl)c(COc3cccc4c3nc(OC)n4Cc3ccccn3)c2Cl)C1 (stereo not shown) , system BK receptors in human ciliary muscle cells (h-CM) (Homo sapiens)?
Response: < 0.1 µM

Prompt: Find the measured EC50: item COC(=O)Nc1ccc(CCC(=O)NCC(=O)N(C)c2ccc(C)c(COc3cccc4c3nc(OC)n4Cc3ccccn3)c2C)cn1 [Compound 4] , target or system BK receptors in human ciliary muscle cells (h-CM) (Homo sapiens).
Response: 0.1 to 1 µM

Prompt: For BK receptors in human ciliary muscle cells (h-CM) (Homo sapiens), provide EC50 of CNC(=O)[C@@H]1CC[C@H](CCC(=O)NCC(=O)N(C)c2ccc(Cl)c(COc3cccc4c3nc(OC)n4Cc3ccccn3)c2Cl)CN1 please.
Response: 0.1 to 1 µM

Prompt: Field: EC50 (BK receptors in human ciliary muscle cells (h-CM) (Homo sapiens)). Entry: COc1nc2c(OCc3c(Cl)ccc(N(C)C(=O)CNC(=O)CCCN4CCNC(=O)C4)c3Cl)cccc2n1Cc1ccccn1
Response: < 0.1 µM

Prompt: Write down the reported EC50 of CNC(=O)c1ccc(CCC(=O)NCC(=O)N(C)c2ccc(Cl)c(COc3cccc4c(OCc5cn(C)cn5)cc(C)nc34)c2Cl)cn1 [Compound 48] , test system: BK receptors in human ciliary muscle cells (h-CM) (Homo sapiens).
Response: < 0.1 µM

Prompt: Value wanted: EC50 (BK receptors in human ciliary muscle cells (h-CM) (Homo sapiens)) of entry CNC(=O)C1CCN(CC(=O)NCC(=O)N(C)c2ccc(C)c(COc3cccc4c3nc(OC)n4Cc3ccccn3)c2C)CC1
Response: 0.1 to 1 µM

Prompt: // map CNC(=O)c1ccc(CCC(=O)NCC(=O)N(C)c2ccc(Cl)c(COc3cccc4c3nc(OC)n4Cc3ccccn3)c2Cl)cc1 to recorded EC50 (system: BK receptors in human ciliary muscle cells (h-CM) (Homo sapiens))
Response: < 0.1 µM

Prompt: Provide value of EC50 for this record tested with BK receptors in human ciliary muscle cells (h-CM) (Homo sapiens): CNC(=O)[C@@H]1CN(CC(=O)NCC(=O)N(C)c2ccc(Cl)c(COc3cccc4c3nc(OC)n4Cc3ccccn3)c2Cl)CCO1
Response: < 0.1 µM

Prompt: EC50 of COc1nc2c(OCc3c(Cl)ccc(N(C)C(=O)CNC(=O)CCC4CN=C(N)NC4)c3Cl)cccc2n1Cc1ccccn1 (stereo not shown) on BK receptors in human ciliary muscle cells (h-CM) (Homo sapiens)?
Response: < 0.1 µM

Prompt: Find the measured EC50: item CNC(=O)c1ncc(CCC(=O)NCC(=O)N(C)c2ccc(Cl)c(COc3cccc4c3nc(OC)n4Cc3ccccn3)c2Cl)cn1 , target or system BK receptors in human ciliary muscle cells (h-CM) (Homo sapiens).
Response: < 0.1 µM
